- system_under_test: EGFR with insertion of SVD between D770 and N771 (EGFR ins SVD) (Homo sapiens, UniProt P00533, DUP768-770)
- Construct: made in house; host or cells: Sf9 insect cells (baculovirus)
- Sequence (P00533 with tags, fused parts or gaps DUP768-770): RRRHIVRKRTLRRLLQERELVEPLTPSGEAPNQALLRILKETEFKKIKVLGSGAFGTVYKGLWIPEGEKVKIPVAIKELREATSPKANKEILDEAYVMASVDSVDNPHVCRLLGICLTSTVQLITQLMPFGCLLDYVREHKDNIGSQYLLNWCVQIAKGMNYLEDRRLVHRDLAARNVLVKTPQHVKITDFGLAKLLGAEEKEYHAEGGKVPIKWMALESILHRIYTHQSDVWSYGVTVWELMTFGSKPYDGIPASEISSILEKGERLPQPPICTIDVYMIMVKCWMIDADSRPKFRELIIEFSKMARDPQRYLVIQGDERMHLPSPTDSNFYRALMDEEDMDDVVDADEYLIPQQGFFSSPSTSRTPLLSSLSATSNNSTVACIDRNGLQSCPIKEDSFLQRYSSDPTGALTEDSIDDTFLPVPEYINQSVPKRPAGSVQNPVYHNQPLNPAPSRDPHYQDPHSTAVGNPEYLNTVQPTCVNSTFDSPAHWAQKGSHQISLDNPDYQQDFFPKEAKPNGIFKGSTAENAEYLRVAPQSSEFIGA
- experiment_summary: Exon20-Mutant-EGFR(D770_N771insSVD) kinase assay (TR-FRET)
- Type: biochemical
- test_context: 2 mM ATP, several values per example where printed
property_measured: mutEGFR (D770_N771insSVD) kinase assay IC50 (nM)

Consider the worked cases shown below.
{"columns": ["compound", "measure_unit", "endpoint_value"],
 "data": [
  ["COc1c(Cl)cccc1Nc1c(-c2ccncc2OCCC2COCCO2)[nH]c2c1C(=O)NCC2 (single isomer, unassigned) [Example 25]", "nM", 0.282],
  ["CCc1c(F)cccc1Nc1c(-c2ccncc2OCC2COCCO2)[nH]c2c1C(=O)NCC2 (single isomer, unassigned) [Example 67]", "nM", 0.217],
  ["COc1c(Cl)cccc1Nc1c(-c2ccncc2OCC2CN(C)CCO2)[nH]c2c1C(=O)NCC2 (single isomer, unassigned) [Example 16]", "nM", 0.228],
  ["COc1c(F)cccc1Nc1c(-c2ccncc2OCCC2COCCO2)[nH]c2c1C(=O)NCC2 (single isomer, unassigned) [Example 35]", "nM", 0.0873],
  ["COc1c(Cl)cccc1Nc1c(-c2ccncc2OC(C)C2CN(C)CCO2)[nH]c2c1C(=O)NCC2 (single isomer, unassigned) [Example 73]", "nM", 1.12],
  ["COc1c(F)cccc1Nc1c(-c2ccncc2OC[C@@H]2CN(CC(F)(F)F)CCO2)[nH]c2c1C(=O)NCC2 [Example 23]", "nM", 0.169],
  ["Cc1c(Cl)cccc1Nc1c(-c2ccncc2OC[C@@H]2CN(C)CCO2)[nH]c2c1C(=O)NCC2 [Example 42]", "nM", 0.155],
  ["Cc1c(F)cccc1Nc1c(-c2ccncc2OCC2COC(C)(C)CO2)[nH]c2c1C(=O)NCC2 (stereo not shown) [Example 38]", "nM", 0.119]
]}

A: Cc1c(F)cccc1Nc1c(-c2ccncc2OCC2COCCO2)[nH]c2c1C(=O)NCC2 (single isomer, unassigned) [Example 48]
B: Cc1c(Cl)cccc1Nc1c(-c2ccncc2OC[C@H]2COCCO2)[nH]c2c1C(=O)NCC2 (single isomer, unassigned) [Example 50]
[ask] I'd appreciate it if you could identify which of A and B has the greater mutEGFR (D770_N771insSVD) kinase assay IC50. API: response body contains the label of the selected item.
[reply] A
(A: 0.249 nM, B: 0.17 nM)

---

- system_under_test: Ba/F3-EGFR-N771_P772insH cells (Homo sapiens, UniProt P00533, INS771H, cells depend on it)
- Sequence (P00533 with tags, fused parts or gaps INS771H): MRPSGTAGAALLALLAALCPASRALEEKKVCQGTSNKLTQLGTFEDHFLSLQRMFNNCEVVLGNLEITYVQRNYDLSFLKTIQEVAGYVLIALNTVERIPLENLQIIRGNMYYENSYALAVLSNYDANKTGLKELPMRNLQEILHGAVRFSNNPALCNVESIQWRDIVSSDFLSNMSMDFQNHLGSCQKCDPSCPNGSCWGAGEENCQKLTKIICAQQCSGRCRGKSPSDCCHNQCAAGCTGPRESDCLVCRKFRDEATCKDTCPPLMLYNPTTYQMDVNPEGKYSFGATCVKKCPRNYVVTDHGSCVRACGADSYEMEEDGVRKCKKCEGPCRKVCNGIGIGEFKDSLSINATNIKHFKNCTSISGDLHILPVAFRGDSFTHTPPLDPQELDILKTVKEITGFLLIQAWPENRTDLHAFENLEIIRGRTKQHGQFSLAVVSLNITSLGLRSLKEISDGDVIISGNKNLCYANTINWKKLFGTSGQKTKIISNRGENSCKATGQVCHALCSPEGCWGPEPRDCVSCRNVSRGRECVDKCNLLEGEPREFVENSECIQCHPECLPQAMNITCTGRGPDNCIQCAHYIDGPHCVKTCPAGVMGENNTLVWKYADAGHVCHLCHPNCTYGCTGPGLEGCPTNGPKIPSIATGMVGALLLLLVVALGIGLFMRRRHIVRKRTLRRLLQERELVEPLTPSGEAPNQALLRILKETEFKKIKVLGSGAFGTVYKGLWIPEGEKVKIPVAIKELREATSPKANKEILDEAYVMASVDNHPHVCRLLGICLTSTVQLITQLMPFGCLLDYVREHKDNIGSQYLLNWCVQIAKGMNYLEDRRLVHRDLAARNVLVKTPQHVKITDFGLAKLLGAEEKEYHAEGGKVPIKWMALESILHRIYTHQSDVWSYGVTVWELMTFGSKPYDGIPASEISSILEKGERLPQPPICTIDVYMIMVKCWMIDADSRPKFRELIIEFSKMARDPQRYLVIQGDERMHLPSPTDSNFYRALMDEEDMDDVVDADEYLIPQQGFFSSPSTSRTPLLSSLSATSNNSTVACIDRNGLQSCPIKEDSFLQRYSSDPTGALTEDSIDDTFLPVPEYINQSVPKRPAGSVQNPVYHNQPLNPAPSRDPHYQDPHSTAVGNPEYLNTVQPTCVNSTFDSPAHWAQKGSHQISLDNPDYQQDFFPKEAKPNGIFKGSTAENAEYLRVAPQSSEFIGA
- experiment_summary: Ba/F3 cell survival assay, EGFR N771_P772insH
- Assay type: cell-based
- test_context: without IL-3, without EGF, 48 h; read-out: BA/F3 (EGFR N771_772 insH) IC50
property_measured: GI50 (nM)
A number alone suffices; assume nM.

[ask] Name the recorded GI50 for COc1c(Cl)cccc1Nc1c(-c2ccncc2OC[C@@H]2COCCN2C)[nH]c2c1C(=O)NCC2 [Example 21] .
[reply] 4.22

[ask] Another molecule to look at: Cc1c(Cl)cccc1Nc1c(-c2ccncc2OC[C@H]2COCCO2)[nH]c2c1C(=O)NCC2 (single isomer, unassigned) [Example 50]
[reply] 7.42

[ask] Likewise for CCc1c(Cl)cccc1Nc1c(-c2ccncc2OC[C@@H]2CN(C)CCO2)[nH]c2c1C(=O)NCC2 [Example 56] ?
[reply] 7.36

[ask] Likewise for COc1c(F)cccc1Nc1c(-c2ccncc2OCC2CN(C)CCO2)[nH]c2c1C(=O)NCC2 (single isomer, unassigned) [Example 14] ?
[reply] 7.6
